B1: TPR 5TU (parent)
chain: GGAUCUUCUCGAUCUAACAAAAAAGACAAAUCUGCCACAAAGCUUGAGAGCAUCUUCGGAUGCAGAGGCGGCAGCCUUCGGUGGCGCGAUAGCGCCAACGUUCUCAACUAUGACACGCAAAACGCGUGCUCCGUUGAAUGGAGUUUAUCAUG

Variants of: B1
Experiment: polymerase ribozyme fitness, log enrichment relative to wild type (log ratio); higher = more active; in vitro selection for triplet polymerase activity
This sample holds only a part of the variants without activity.
For each record, write down the corresponding polymerase ribozyme fitness (log ratio).
Enter the number alone.

Any idea what polymerase ribozyme fitness (log ratio) was measured for G46A A52C U61G ?
-0.687

Next: A39G A115C
-3.17

Next: C125U
-0.476

Next: A16U A22C G59A C118A
-3.09

Next: A19U A73U
-0.608

Next: A3C G58U C76U G84A C85U G94A
-2.53

Next: U4G A52C G83A
-2.69

Next: A16U C38A C85A
-3.78

Next: C96G A115G C123A A147U
-0.404

Next: C14G
-2.09

Next: C38U C95G A120U G152A
-3.59

These entries and their values trace back to the RNAGym collection of RNA variant scans (doi:10.1073/pnas.2313332121).
